Assay: in vivo
Settings: Sprague-Dawley, rat, po, 39.2 g/kg/day, T max, MG group: AIA rats, saline 21 days, then oral SM 39.2 g crude drug/kg, plasma, mean ± SEM
hey, just use class 1 if measured Tmax is less than 10 min, otherwise class 0

In [3]: df
Out[3]:
                                chem_smiles    class
0  C[C@@]12C[C@@]3(O)O[C@@H](O1)[C@]1(COC(=O)c4ccccc4)[C@H]3C[C@@]12O[C@@H]1O[C@H](CO)[C@@H](O)[C@H](O)[C@H]1O  class 0
1         COc1ccc(-c2coc3cc(O)ccc3c2=O)cc1O  class 1
2  C[C@@]12C[C@@]3(O)O[C@@H](O1)[C@]1(COC(=O)c4ccccc4)[C@H]3C[C@@]12O[C@@H]1O[C@H](COC(=O)c2ccccc2)[C@@H](O)[C@H](O)[C@H]1O  class 1
3  O=C(/C=C/c1ccc(O[C@@H]2O[C@H](CO)[C@@H](O)[C@H](O)[C@H]2O)cc1)c1ccc(O)cc1O  class 0

====

Assay: PK study of SM components in plasma of AIA rats by UPLC-MS/MS (MG vs MPS group)
Conditions: MPS group: AIA rats, oral PS 9.8 g crude drug/kg/day 21 days, then oral SM 39.2 g crude drug/kg; plasma; mean ± SEM
Below, each of the molecules is paired with its reported t 1/2 value.

molecule	scale unit	t 1/2
COC[C@]12CN(C)C3[C@@H]4[C@H](OC)[C@H]1[C@@]3([C@@H](OC)C[C@H]2O)[C@@H]1C[C@@]2(O)[C@H](OC(=O)c3ccccc3)[C@@H]1[C@]4(O)[C@@H](O)[C@@H]2OC	h	1.723
CCN1C[C@]2(COC)[C@H](O)C[C@H](OC)[C@@]34[C@@H]5C[C@@]6(O)[C@H](OC(=O)c7ccccc7)[C@@H]5[C@@](O)([C@@H]([C@H](OC)[C@H]23)[C@@H]14)[C@@H](O)[C@@H]6OC	h	3.875
CCN1C[C@]2(COC)CC[C@H](O)[C@]34C1[C@H]([C@H](OC)[C@H]23)[C@@]1(O)C[C@H](OC)[C@H]2C[C@@H]4[C@@H]1[C@H]2O	h	2.486
COC[C@@]12CC[C@H](OC)[C@]34C([C@H]([C@H](OC)[C@H]13)[C@]1(O)[C@H]3[C@@H](OC(=O)c5ccccc5)[C@](O)(C[C@H]34)[C@@H](OC)[C@@H]1O)N(C)C2	h	4.742
O=C1C[C@@H](c2ccc(O)cc2)Oc2cc(O)ccc21	h	1.448
CCN1C[C@]2(COC)CC[C@H](OC)[C@]34C1[C@H](C[C@H]23)[C@@]1(O)C[C@H](OC)[C@H]2C[C@@H]4[C@@H]1[C@H]2O	h	5.163
COc1ccc(-c2coc3cc(O[C@@H]4O[C@H](CO)[C@@H](O)[C@H](O)[C@H]4O)ccc3c2=O)cc1O [Calycosin-7-glycoside]	h	2.113
C[C@]12C[C@@H](O)[C@@H]3C[C@@]1(O[C@@H]1O[C@H](CO)[C@@H](O)[C@H](O)[C@H]1O)[C@@]3(COC(=O)c1ccccc1)C(=O)O2	h	1.669

====

Assay: PK study of SM components in plasma of AIA rats by UPLC-MS/MS (MG vs MPS group)
Conditions: Sprague-Dawley, rat, plasma, po, 39.2 g/kg/day, AUC 0-t, MPS group: AIA rats, oral PS 9.8 g crude drug/kg/day 21 days, then oral SM 39.2 g crude drug/kg; plasma; mean ± SEM
measurement kind: AUC 0-t (ng·h/mL)

chem smiles	measurement kind	scale unit	quantitative readout
CC1(C)[C@@H](O)CC[C@]2(C)[C@H]3C(=O)C=C4[C@@H]5C[C@@](C)(C(=O)O)CC[C@]5(C)CC[C@@]4(C)[C@]3(C)CC[C@@H]12	AUC 0-t	ng·h/mL	30500
CC1(C)[C@@H](O[C@H]2O[C@H](C(=O)O)[C@@H](O)[C@H](O)[C@H]2O[C@@H]2O[C@H](C(=O)O)[C@@H](O)[C@H](O)[C@H]2O)CC[C@]2(C)[C@H]3C(=O)C=C4[C@@H]5C[C@@](C)(C(=O)O)CC[C@]5(C)CC[C@@]4(C)[C@]3(C)CC[C@@H]12	AUC 0-t	ng·h/mL	29600
O=C(/C=C/c1ccc(O)cc1)c1ccc(O)cc1O	AUC 0-t	ng·h/mL	9.47
COc1ccc(-c2coc3cc(O)ccc3c2=O)cc1	AUC 0-t	ng·h/mL	12.3
